Test: Measurement of particle size distribution (sieving)
Type: physicochemical
Settings: sieve fraction 300 to 1,000 μm
property: Particle size distribution 300 to 1,000 μm (weight %)
Write the number in weight % without appending the unit.

O=C(O)[C@H](O)c1ccccc1Cl [Example 1, (R)-2-chloromandelic acid]	73.5
O=C(O)[C@H](O)c1ccccc1Cl [Example 6, (R)-2-chloromandelic acid]	71.3
O=C(O)[C@H](O)c1ccccc1Cl [Example 2, (R)-2-chloromandelic acid]	73.2
O=C(O)[C@H](O)c1ccccc1Cl [Example 5, (R)-2-chloromandelic acid]	73.1

Q) Return Particle size distribution 300 to 1,000 μm for the following compound: O=C(O)[C@H](O)c1ccccc1Cl [Example 4, (R)-2-chloromandelic acid]
A) 72.2
